Molecular target: human NTH1 (hNTH1, endonuclease III-like protein 1) (Homo sapiens, UniProt P78549)
Sequence (P78549 23-304): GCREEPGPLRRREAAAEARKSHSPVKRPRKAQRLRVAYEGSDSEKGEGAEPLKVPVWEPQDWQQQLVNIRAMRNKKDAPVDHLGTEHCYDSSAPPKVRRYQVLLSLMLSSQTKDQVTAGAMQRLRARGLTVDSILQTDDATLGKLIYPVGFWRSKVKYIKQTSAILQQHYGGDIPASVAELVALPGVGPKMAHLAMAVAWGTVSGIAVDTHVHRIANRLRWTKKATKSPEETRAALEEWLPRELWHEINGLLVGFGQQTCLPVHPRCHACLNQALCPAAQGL
REPORTED_ENDPOINT: pIC50
As a rule, pIC50 stands for the negative log10 of the concentration, concentration in M.

Query block: Hello, I am looking for reported pIC50 with human NTH1 (hNTH1, endonuclease III-like protein 1) (Homo sapiens, UniProt P78549) for Nc1ncnc2c1c(-c1cccc(OCc3ccccc3)c1)cn2[C@H]1C[C@@H](CN2CCC2)C1 . Could you help?
Result block: 6.11
